assay: acute toxicity in mice, intravenous; details: in vivo, mouse, i.v., dosage at which 50% of the mice die
Measured attribute: LD50 (mg/kg)
Report as a plain number; the unit mg/kg is understood.

Guide cases for LD50, answers given:
{"columns": ["Compound", "LD50 [mg/kg]"],
 "data": [
  ["CC(C)NCC(O)COc1cccc2nsnc12 (stereo not drawn)", 50],
  ["CC(C)NCC(O)COc1ccc2nsnc2c1 (stereo not drawn) [Compound A, reference compound]", 100]
]}

Here's the next entry for you.
Look up and report measured LD50 for this entry: CC(C)(C)NCC(O)COc1cccc2nsnc12 (stereo not drawn)
45
